Entries annotated with measured melting point

Some compounds with known melting point results, for comparison:
Enquiry: Identify measured melting point corresponding to CCC(C)(C)C1CCC2(CC1)SC(C)C(=O)N2NC(=O)c1ccc(S(N)(=O)=O)cc1OC (stereo not shown)
Return: 290 to 295 °C

Enquiry: Identify measured melting point corresponding to COc1cc(S(N)(=O)=O)ccc1C(=O)NN1C(=O)C(C)SC12CCC(C(F)(F)F)CC2 (stereo not shown)
Return: 210 to 214 °C

Enquiry: Identify measured melting point corresponding to CCCC1CCC2(CC1)SC(C)C(=O)N2NC(=O)c1ccc(S(N)(=O)=O)cc1OC (stereo not shown)
Return: 274 to 276 °C

Kindly consider the entry below.
Enquiry: Identify measured melting point corresponding to COc1cc(S(N)(=O)=O)ccc1C(=O)NN1C(=O)C(C)SC12CCC(C(C)(C)C)CC2 (stereo not shown)
Return: 301 to 304 °C
